Data origin: ChEMBL document CHEMBL3988442

Recorded Percent Effect by entry
# System: Wolbachia pipientis
# ASSAY METHOD TEXT: Anti-Wolbachia Cell-Based Screen
# Format: functional
# Parameters: scale not given: in the data most compounds retested in dose-response had high values
# EXPERIMENTAL PARAMETERS: 5 µM
In all, about 48,000 compounds went through this assay and about 13,000 (27%) showed an effect of 50% or more. This is one part of the list.
State the answer as a number, implicitly in %.

A selection of reference data follows.
Name the recorded Percent Effect for O=c1nc(SCc2cccnc2)c2c(n1CCO)CCC2 .
-0.5534

// query: CN(Cc1nc(Cc2cccc(C(F)(F)F)c2)no1)C1CCCCC1
113.9

Would you mind doing CN(Cc1cnn(C)c1)Cc1nc(Cc2cccc(Cl)c2)no1 as well?
5.655

Also COc1ncc(NS(=O)(=O)c2ccc(F)cc2F)cn1 ?
7.047

Next up: COc1cccc(CN2C[C@H]3CC[C@H]2C3)c1OCCN1CCOCC1
3.067

Please look at the following molecule next.
What value of measured Percent Effect is listed for O=C(NCCc1cc2nc(-c3ccncc3)ccn2n1)C1CCOCC1 ?
126.4

###

Entries and their measured Percent Effect follow.
# System: Wolbachia pipientis
# ASSAY METHOD TEXT: Anti-Wolbachia Cell-Based Screen
# Assay type: functional
# Set-up: scale not given: in the data most compounds retested in dose-response had high values
# EXPERIMENTAL PARAMETERS: 5 µM
Among all 48,000 compounds or so, about 13,000 (27%) showed an effect of 50% or more. Some of the results follow.
State just the number; it will be interpreted in %.

The cases that follow already have their Percent Effect on record.
For the compound shown here, CO[C@@H]1CN(c2ccccc2)S(=O)(=O)[C@@]12CCN(Cc1ccccc1)C2 , give the reported Percent Effect.
116.8

// repeat for CN1CCCCC(C2CCN(S(=O)(=O)c3cn(C)cn3)CC2)C1=O (configuration not stated) and report
106.2

Lookup CCn1cc(S(=O)(=O)N2CCC(C3CCCCN(C)C3=O)CC2)c(C)n1 (configuration not stated)
91.1

// same read-out, input: Cl.O=C1CC(NCc2cnc(N3CCCC3)nc2)CN1c1ccccc1 (configuration not stated)
36.64

One more compound: C=Cn1ncc(CN2C[C@@H]3CCCN3C[C@H]2CCSC)c1C
-0.7089

More entries:
Dear colleague, I am looking for the recorded Percent Effect of the following compound: Cc1[nH]c2c(F)cccc2c1CC(=O)N1CCCC(N)CC1 (configuration not stated)
-2.417

Same question for C=Cn1ncc(CN2C[C@@H]3C[C@@H](O)CN3C[C@H]2Cc2ccccc2)c1C please.
130.9

###

# Test system: Wolbachia pipientis
# ASSAY METHOD TEXT: Anti-Wolbachia Cell-Based Screen
# Format: functional
# Set-up: scale not given: in the data most compounds retested in dose-response had high values
# EXPERIMENTAL PARAMETERS: 5 µM
The whole screen tested about 48,000 compounds, of which about 13,000 (27%) showed an effect of 50% or more. The list shows a part of the results.
Some molecules, each annotated with its measured Percent Effect.
The reply should contain only the number, in %.

Look up Percent Effect for this molecule: CCOCCCC(=O)N(C)C(c1cccc(F)c1)c1ccccn1 (stereo not given)
89.97

Here is the next molecule: CCn1ncc2c1C(COC)N(C(=O)c1ccsc1)CC2.O=C(O)C(F)(F)F (stereo not given)
90.11

Another molecule: COCCN1CCc2cc(C(=O)NC(C)C)c(NCC(C)C)nc2CC1.O=C(O)C(F)(F)F.O=C(O)C(F)(F)F
1.817

Further cases:
Entry NC(=O)CN1CCC(C(=O)NCCn2cc(Cl)cn2)CC1 : reported Percent Effect = ?
2.042

Repeat for the following molecule: CN(Cc1cccs1)C1CCC[C@@H]2CN(C(=O)c3cnccn3)C[C@H]12.O=C(O)C(F)(F)F (stereo not given in full)
14.26

Next up: OCCOc1ccc(NCc2cc(F)cc3cccnc23)cn1
-4.55

Can you check CN1[C@H](CN2CCCC2)C[C@@H]2CN(C(=O)c3cnccn3)CC[C@@H]21 next?
120.7

Same read-out for COCC1CN(C(=O)c2cccn2C)Cc2c1cnn2CC1CC1.O=C(O)C(F)(F)F (stereo not given) ?
4.422

Please do the same for CCOCCC(=O)NC(Cc1ccc(C)cc1)c1ccccn1 (stereo not given) as well.
30.55
